FYI, the data here is from patent US20110230419A1.

Items are presented alongside their recorded IC50.
- system-name: XIAP BIR3 (Homo sapiens)
- Sequence (P98170 252-356 limits assumed): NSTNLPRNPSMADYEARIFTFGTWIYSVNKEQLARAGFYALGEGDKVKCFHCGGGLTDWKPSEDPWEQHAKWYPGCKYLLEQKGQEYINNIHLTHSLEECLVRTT
- assay-details: HIS-tagged BIR3 XIAP domain Alphascreen assay
- Set-up: HIS-tagged XIAP BIR3 (RnD systems); purchased RnD systems
- measurement-setup: HIS-tagged XIAP BIR3 (RnD systems), biotin-labeled IAP-binding molecule, Streptavidin Donor / Ni-NTA Acceptor Beads, incubation 2 hours; concentration reducing alphascreen signal to half of maximum
parameter-measured: IC50

molecule | parameter-measured | measurement
CNC(C)c1cccc(C(=O)N2C[C@@H](c3ccccc3)C[C@H]2CN2CC[C@H](c3ccccc3)C2)c1 (stereo partly drawn) | IC50 | 100 to 1000 nM
CNC(C)c1ccc(C(=O)N2C[C@@H](c3ccccc3)C[C@H]2CN2CC[C@H](c3ccccc3)C2)o1 (stereo partly drawn) | IC50 | 100 to 1000 nM
CNC(C)c1ccc(C(=O)N2C[C@@H](c3ccc(F)cc3)C[C@H]2C(=O)N2CCC(c3ccc(F)cc3)C2)o1 (stereo partly drawn) | IC50 | 0.1 to 100 nM
